normalized growth values by entry
testDescription: chemical genetic growth profiling, strain panel (AID 1159580);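 note: tested at 20 µM; growth read once vehicle control cultures reached saturation at 30 °C; 1 = growth at the plate median or of vehicle wells; lower values mean less growth of the strain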
conditionDescription: S. cerevisiae deletion strains, growth OD, locus YBR023C, strain chs3, hits give low values
Hit rate of the full screen: of about 5,500 compounds, about 2,000 (36%) were called active. Not shown: some 18% with an inconclusive outcome. The list shows a part of the results.
measurementLabel: normalized growth

1) CCCCNc1ccc(C(=O)OCCN(C)C)cc1 :: 1.01
2) O=C1C=C2C=C[C@@H]3C[C@@]2(O1)[C@H]1CCCCN31 :: 1.01
3) CCCCN(CCCC)CCCOC(=O)c1ccc(N)cc1 :: 0.99
4) Nc1nc2ncc(=O)[nH]c2c(=O)[nH]1 :: 0.979
5) CCN(CC)CCOC(=O)c1ccc(N)cc1 :: 0.976
6) CCCOc1ccc(C(=O)OCCN(CC)CC)cc1N :: 1.02
7) Cc1cccc(C)c1NC1=NCCCS1 :: 1.02
8) Clc1cccc(Cl)c1NC1=NCCN1 :: 0.983

The reported measurements were obtained from PubChem BioAssay AID1159580.
